The molecules listed here are annotated with their viability, T/C.
- System: 454973-116-R2-J3-PDC spheroids, percent test/control viability;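 note: spheroids exposed to compounds for 7 days before readout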
- assayComment: Anticancer human tumor 454973-116-R2-J3-PDC patient-derived pancreatic carcinoma cell line growth inhibition [CLK]
- settings: second compound 10 µM; first compound 0.0316 µM; hits give low values; spheroids with HUVEC and MSC
propertyLabel: viability, T/C

[[record]]
molecule = "CCN1CCN(Cc2ccc(Nc3ncc(F)c(-c4cc(F)c5nc(C)n(C(C)C)c5c4)n3)nc2)CC1 + CN1CCN(c2cc(C(=O)Nc3cc4cc(-c5cnn(C)c5)ccc4cn3)ccn2)CC1"
system = "454973-116-R2-J3-PDC spheroids, percent test/control viability"
propertylabel = "viability, T/C"
result = "0.24%"

[[record]]
molecule = "O=c1[nH]cc(F)c(=O)[nH]1 + CN1CCN(c2cc(C(=O)Nc3cc4cc(-c5cnn(C)c5)ccc4cn3)ccn2)CC1"
system = "454973-116-R2-J3-PDC spheroids, percent test/control viability"
propertylabel = "viability, T/C"
result = "0.05%"

[[record]]
molecule = "COc1ccc([C@@H](O)c2cc(-c3ncnc4cc(N5CCOCC5)ccc34)c(F)cc2Cl)nn1 + CNC(=O)c1ccc(Nc2nc(OC3CCCC3)c3c(-c4ccc5nc(C)oc5c4)c[nH]c3n2)c(OC)c1"
system = "454973-116-R2-J3-PDC spheroids, percent test/control viability"
propertylabel = "viability, T/C"
result = "28.2%"

